Attribute: Fold Shift of EC50
- system under test: PTHR1 receptor
- Sequence (P25961 whole entry): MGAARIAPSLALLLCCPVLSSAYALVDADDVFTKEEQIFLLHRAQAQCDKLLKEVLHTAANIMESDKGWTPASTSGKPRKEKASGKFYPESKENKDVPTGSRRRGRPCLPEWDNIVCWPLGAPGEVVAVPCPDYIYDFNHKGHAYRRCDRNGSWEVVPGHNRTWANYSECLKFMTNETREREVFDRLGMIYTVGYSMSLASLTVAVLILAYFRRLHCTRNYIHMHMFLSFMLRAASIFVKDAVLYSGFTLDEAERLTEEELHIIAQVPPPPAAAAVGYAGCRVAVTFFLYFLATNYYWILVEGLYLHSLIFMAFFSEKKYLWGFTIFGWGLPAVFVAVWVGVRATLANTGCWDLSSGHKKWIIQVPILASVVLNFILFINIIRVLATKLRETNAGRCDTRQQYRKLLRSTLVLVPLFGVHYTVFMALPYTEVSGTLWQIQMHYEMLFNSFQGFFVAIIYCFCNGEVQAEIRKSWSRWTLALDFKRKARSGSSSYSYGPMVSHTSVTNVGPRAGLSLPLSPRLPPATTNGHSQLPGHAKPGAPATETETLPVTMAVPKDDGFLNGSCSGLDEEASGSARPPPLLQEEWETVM
* marks the point of attachment. Palmitoyl = CCCCCCCCCCCCCCCC(=O)*
Provide the reading as a plain figure in fold.

- binder: "Palmitoyl-SGRVLATKLRETNA-NH2 (SMILES CCCCCCCCCCCCCCCC(=O)N[C@@H](CO)C(=O)NCC(=O)N[C@@H](CCCNC(=N)N)C(=O)N[C@H](C(=O)N[C@@H](CC(C)C)C(=O)N[C@@H](C)C(=O)N[C@H](C(=O)N[C@@H](CCCCN)C(=O)N[C@@H](CC(C)C)C(=O)N[C@@H](CCCNC(=N)N)C(=O)N[C@@H](CCC(=O)O)C(=O)N[C@H](C(=O)N[C@@H](CC(N)=O)C(=O)N[C@@H](C)C(N)=O)[C@@H](C)O)[C@@H](C)O)C(C)C) [Compound 73]"
  measure name: "Fold Shift of EC50"
  reported measurement: 0.8

Lab note: Palmitoyl-RRLHSTRNYIH-NH2 (SMILES CCCCCCCCCCCCCCCC(=O)N[C@@H](CCCNC(=N)N)C(=O)N[C@@H](CCCNC(=N)N)C(=O)N[C@@H](CC(C)C)C(=O)N[C@@H](Cc1c[nH]cn1)C(=O)N[C@@H](CO)C(=O)N[C@H](C(=O)N[C@@H](CCCNC(=N)N)C(=O)N[C@@H](CC(N)=O)C(=O)N[C@@H](Cc1ccc(O)cc1)C(=O)N[C@H](C(=O)N[C@@H](Cc1c[nH]cn1)C(N)=O)[C@@H](C)CC)[C@@H](C)O) [Compound 2] gave Fold Shift of EC50 of 1.9
